Recorded melting point by entry
endpointName: melting point

compound="CC(C)[C@@H](NS(=O)(=O)c1ccc(NC(=O)c2ccccc2)cc1)C(=O)O (hydrate or solvate)" recordedvalue="226 to 227 °C"
compound=CC(C)[C@@H](NS(=O)(=O)c1ccc(NC(=O)c2ccc(Br)cc2)cc1)C(=O)O recordedvalue="229 to 230 °C"
compound="O=Cn1cc(C[C@@H](NS(=O)(=O)c2ccc(-c3nnn(-c4ccccc4)n3)cc2)C(=O)O)c2ccccc21 (hydrate or solvate)" recordedvalue="111 to 114 °C"
compound="Cc1ccc(-n2nnc(-c3ccc(S(=O)(=O)N[C@@H](C(=O)O)C(C)C)cc3)n2)cc1 (hydrate or solvate)" recordedvalue="206 to 207 °C"
compound="CSc1ccc(-n2nnc(-c3ccc(S(=O)(=O)N[C@@H](C(=O)O)C(C)C)cc3)n2)cc1 (hydrate or solvate)" recordedvalue="194 to 195 °C"
compound=COc1ccc(C(=O)Nc2ccc(S(=O)(=O)N[C@H](Cc3ccccc3)C(=O)O)cc2)cc1 recordedvalue="237 to 239 °C"

Just for reference, patent US6441021B1 is where these values come from.
